Entry source: ChEMBL document CHEMBL3352575

We begin with a simple list: items and their reported pIC50.
experiment: Antiproliferative activity against human SF763 cells after 72 hrs by MTT assay; type: functional, cell-based; conditions: SF763, 72 h
Lab note — pIC50 values are minus log10 of concentrations in M.

Here's what some known entries look like.
compound-string	quantitative-result
C=C(C)[C@@H]1CC[C@]2(C(=O)NCC(=O)OC)CC[C@]3(C)[C@H](CC[C@@H]4[C@@]5(C)Cc6c[nH]nc6[C@@](C)(COC(C)=O)[C@@H]5CC[C@]43C)[C@@H]12	4.75
C=C(C)[C@@H]1CC[C@]2(C(=O)O[C@@H]3O[C@H](CO)[C@@H](O)[C@H](O)[C@H]3O)CC[C@]3(C)[C@H](CC[C@@H]4[C@@]5(C)Cc6c[nH]nc6[C@@](C)(COC(C)=O)[C@@H]5CC[C@]43C)[C@@H]12	4.70
C=C(C)[C@@H]1CC[C@]2(C(=O)NCC(=O)O)CC[C@]3(C)[C@H](CC[C@@H]4[C@@]5(C)Cc6c[nH]nc6[C@@](C)(CO)[C@@H]5CC[C@]43C)[C@@H]12	4.56

QUERY: // lookup pIC50 for C=C(C)[C@@H]1CC[C@]2(C(=O)O)CC[C@]3(C)[C@H](CC[C@@H]4[C@@]5(C)Cc6cn(CC(=O)O)nc6[C@@](C)(CO)[C@@H]5CC[C@]43C)[C@@H]12
RESULT: 4.52

----------
Reported pIC50 values for a set of compounds
assay: Antiproliferative activity against human SF763 cells after 72 hrs by MTT assay; format: functional, cell-based; details: SF763, 72 h
Remember, pIC50 is on a log scale: it is -log10 of the molar concentration.

compound-string	property	quantitative-result
C=C(C)[C@@H]1CC[C@]2(C(=O)O)CC[C@]3(C)[C@H](CC[C@@H]4[C@@]5(C)Cc6cn(C(C)=O)nc6[C@@](C)(COC(C)=O)[C@@H]5CC[C@]43C)[C@@H]12	pIC50	4.50
C=C(C)[C@@H]1CC[C@]2(C(=O)OCC(=O)O)CC[C@]3(C)[C@H](CC[C@@H]4[C@@]5(C)Cc6cn(CC(=O)O)nc6[C@@](C)(CO)[C@@H]5CC[C@]43C)[C@@H]12	pIC50	4.38

Turning now to a further compound:
QUERY: Bench note: what pIC50 did C=C(C)[C@@H]1CC[C@]2(C(=O)Oc3ccc(C#N)cc3)CC[C@]3(C)[C@H](CC[C@@H]4[C@@]5(C)Cc6cn(C(C)=O)nc6[C@@](C)(COC(C)=O)[C@@H]5CC[C@]43C)[C@@H]12 show?
RESULT: 4.63

----------
experiment: Antiproliferative activity against human SF763 cells after 72 hrs by MTT assay; assay type: functional, cell-based; conditions: SF763, 72 h
Please assign a class to every record based on measured IC50, with ranges I = under 20 µM, II = from 20 µM up to 30 µM, III = 30 µM and over

Observe how each entry below is paired with its result.
compound-string	group
C=C(C)[C@@H]1CC[C@]2(C(=O)OCc3ccccc3)CC[C@]3(C)[C@H](CC[C@@H]4[C@@]5(C)Cc6cn(C(C)=O)nc6[C@@](C)(COC(C)=O)[C@@H]5CC[C@]43C)[C@@H]12	II
C=C(C)[C@@H]1CC[C@]2(C(=O)O)CC[C@]3(C)[C@H](CC[C@@H]4[C@@]5(C)Cc6c[nH]nc6[C@@](C)(CO)[C@@H]5CC[C@]43C)[C@@H]12	II
C=C(C)[C@@H]1CC[C@]2(C(=O)N3CCOCC3)CC[C@]3(C)[C@H](CC[C@@H]4[C@@]5(C)Cc6c[nH]nc6[C@@](C)(CO)[C@@H]5CC[C@]43C)[C@@H]12	III
C=CCn1cc2c(n1)[C@@](C)(CO)[C@@H]1CC[C@]3(C)[C@H](CC[C@@H]4[C@H]5[C@H](C(=C)C)CC[C@]5(C(=O)OCc5ccccc5)CC[C@]43C)[C@@]1(C)C2	II
C=C(C)[C@@H]1CC[C@]2(C(=O)O)CC[C@]3(C)[C@H](CC[C@@H]4[C@@]5(C)Cc6cn(CCC)nc6[C@@](C)(CO)[C@@H]5CC[C@]43C)[C@@H]12	III

QUERY: Lab note: which band did C=C(C)[C@@H]1CC[C@]2(C(=O)OCC(=O)OCC)CC[C@]3(C)[C@H](CC[C@@H]4[C@@]5(C)Cc6cn(CC(=O)OCC)nc6[C@@](C)(COC(C)=O)[C@@H]5CC[C@]43C)[C@@H]12 land in?
RESULT: III

QUERY: Just checking, what class would you give C=C(C)[C@@H]1CC[C@]2(C(=O)O)CC[C@]3(C)[C@H](CC[C@@H]4[C@@]5(C)Cc6cn(CC(=O)OCC)nc6[C@@](C)(CO)[C@@H]5CC[C@]43C)[C@@H]12 here?
RESULT: III

----------
experiment: Antiproliferative activity against human SF763 cells after 72 hrs by MTT assay; format: functional, cell-based; conditions: SF763, 72 h
As shown below, each of these molecules has a reported pIC50 value.
Quick note: pIC50 values are minus log10 of concentrations in mol/L.

Worked examples, 4 molecules total:
molecule	pIC50
C=C(C)[C@@H]1CC[C@]2(C(=O)N3CCOCC3)CC[C@]3(C)[C@H](CC[C@@H]4[C@@]5(C)Cc6c[nH]nc6[C@@](C)(COC(C)=O)[C@@H]5CC[C@]43C)[C@@H]12	5.07
O=c1[nH]cc(F)c(=O)[nH]1 [FLUOROURACIL]	5.03
C=C(C)[C@@H]1CC[C@]2(C(=O)OCc3ccccc3)CC[C@]3(C)[C@H](CC[C@@H]4[C@@]5(C)Cc6cn(CC(=O)OCC)nc6[C@@](C)(CO)[C@@H]5CC[C@]43C)[C@@H]12	4.48
C=C(C)[C@@H]1CC[C@]2(C(=O)OCc3ccccc3)CC[C@]3(C)[C@H](CC[C@@H]4[C@@]5(C)Cc6c[nH]nc6[C@@](C)(CO)[C@@H]5CC[C@]43C)[C@@H]12	4.93

Then there is this molecule:
QUERY: Record request: pIC50 value, item C=CCOC(=O)[C@]12CC[C@@H](C(=C)C)[C@@H]1[C@H]1CC[C@@H]3[C@@]4(C)Cc5c[nH]nc5[C@@](C)(CO)[C@@H]4CC[C@@]3(C)[C@]1(C)CC2
RESULT: 4.73

----------
assay: Antiproliferative activity against human SF763 cells after 72 hrs by MTT assay; format: functional, cell-based; details: SF763, 72 h
property: IC50
Reply with a number, then the unit it belongs to.

compound-string	result
C=CCOC(=O)[C@]12CC[C@@H](C(=C)C)[C@@H]1[C@H]1CC[C@@H]3[C@@]4(C)Cc5cn(C(C)=O)nc5[C@@](C)(COC(C)=O)[C@@H]4CC[C@@]3(C)[C@]1(C)CC2	19.5 µM

QUERY: Given the entry C=C(C)[C@@H]1CC[C@]2(C(=O)OCC)CC[C@]3(C)[C@H](CC[C@@H]4[C@@]5(C)Cc6cn(C(C)=O)nc6[C@@](C)(COC(C)=O)[C@@H]5CC[C@]43C)[C@@H]12 , report its measured IC50.
RESULT: 29.4 µM

QUERY: For C=C(C)[C@@H]1CC[C@]2(C(=O)OCc3ccccc3)CC[C@]3(C)[C@H](CC[C@@H]4[C@@]5(C)Cc6cn(CC)nc6[C@@](C)(CO)[C@@H]5CC[C@]43C)[C@@H]12 , what is its reported IC50?
RESULT: 39.6 µM

QUERY: Consider the molecule C=C(C)[C@@H]1CC[C@]2(C(=O)OCC(=O)OCC)CC[C@]3(C)[C@H](CC[C@@H]4[C@@]5(C)Cc6cn(C(C)=O)nc6[C@@](C)(COC(C)=O)[C@@H]5CC[C@]43C)[C@@H]12 and give its measured IC50.
RESULT: 37.6 µM

QUERY: Could you tell me which IC50 is on file for C=C(C)[C@@H]1CC[C@]2(C(=O)NCCN)CC[C@]3(C)[C@H](CC[C@@H]4[C@@]5(C)Cc6c[nH]nc6[C@@](C)(COC(C)=O)[C@@H]5CC[C@]43C)[C@@H]12 ?
RESULT: 6.13 µM

QUERY: Give its IC50 value. Item: C=C(C)[C@@H]1CC[C@]2(C(=O)OCC)CC[C@]3(C)[C@H](CC[C@@H]4[C@@]5(C)Cc6c[nH]nc6[C@@](C)(CO)[C@@H]5CC[C@]43C)[C@@H]12
RESULT: 13.3 µM

QUERY: Returns the measured IC50 for the input molecule. Input: C=C(C)[C@@H]1CC[C@]2(C(=O)O)CC[C@]3(C)[C@H](CC[C@@H]4[C@@]5(C)Cc6cn(CC)nc6[C@@](C)(CO)[C@@H]5CC[C@]43C)[C@@H]12
RESULT: 44.1 µM

QUERY: Which IC50 value is on record for C=C(C)[C@@H]1CC[C@]2(C(=O)O)CC[C@]3(C)[C@H](CC[C@@H]4[C@@]5(C)Cc6c[nH]nc6[C@@](C)(COC(C)=O)[C@@H]5CC[C@]43C)[C@@H]12 ?
RESULT: 14.1 µM

QUERY: Name the recorded IC50 for C=CCOC(=O)[C@]12CC[C@@H](C(=C)C)[C@@H]1[C@H]1CC[C@@H]3[C@@]4(C)Cc5cn(CC=C)nc5[C@@](C)(COC(C)=O)[C@@H]4CC[C@@]3(C)[C@]1(C)CC2 .
RESULT: 22 µM

QUERY: IC50 lookup needed for C=C(C)[C@@H]1CC[C@]2(C(=O)OCCO)CC[C@]3(C)[C@H](CC[C@@H]4[C@@]5(C)Cc6cn(C(C)=O)nc6[C@@](C)(COC(C)=O)[C@@H]5CC[C@]43C)[C@@H]12 , thanks.
RESULT: 32.1 µM

QUERY: I would be grateful if you could share the reported IC50 for C=C(C)[C@@H]1CC[C@]2(C(=O)OCC)CC[C@]3(C)[C@H](CC[C@@H]4[C@@]5(C)Cc6cn(CC)nc6[C@@](C)(COC(C)=O)[C@@H]5CC[C@]43C)[C@@H]12 .
RESULT: 19.4 µM

QUERY: Return reported IC50; argument: C=CCOC(=O)[C@]12CC[C@@H](C(=C)C)[C@@H]1[C@H]1CC[C@@H]3[C@@]4(C)Cc5cn(CC=C)nc5[C@@](C)(CO)[C@@H]4CC[C@@]3(C)[C@]1(C)CC2
RESULT: 25.3 µM
